Test: NCI Yeast Anticancer Drug Screen. Data for the rad50 strain (AID 155);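 note: 0% = growth of vehicle-only cultures of the same strain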
Settings: S. cerevisiae rad50 strain growth inhibition; at 50.0 µM
This is part of a sample that, as a whole, favours compounds with a hit. Of some 79,000 tested, about 15% had one in any assay. Activity calls are given as the source filed them. Cut-off read from the data, not from the text of the source: active = growth inhibition above about 70%; inactive = the rest.
Respond with a class label; see true (1) for active, false (0) for inactive

[[record]]
compound = "O=C(/C=C(/c1ccccc1)N1CCCCC1)c1ccccc1"
class = "true (1)"

[[record]]
compound = "O=C(CC(C(=O)O)N1CCOCC1)c1ccccc1 (configuration not stated)"
class = "false (0)"

[[record]]
compound = "O=C(/C=C/c1cc(Cl)cc(Cl)c1O)c1cccc(O)c1"
class = "true (1)"

[[record]]
compound = "O=C1CSC(c2cccc(Cl)c2)N1c1ccc(-c2ccc(-n3c(-c4ccccc4)nc4ccccc4c3=O)cc2)cc1 (configuration not stated)"
class = "false (0)"

[[record]]
compound = "OCc1ccccc1Cc1ccccc1"
class = "true (1)"


*Q* Which outcome was assigned to `Clc1ccc2c(c1)N(CCCN1CCCC13CCCCC3)c1ccccc1S2` in this test?
*A* false (0)

*Q* What is the recorded call for this compound in the test? `CC(/C=C/c1ccccc1)=N\NC(N)=S`
*A* false (0)

*Q* Entry `Cc1nc2ccccc2nc1NNc1ccccc1` : call = ?
*A* true (1)

*Q* What did this assay record as the result for `O=C1NC(=O)c2ccc([N+](=O)[O-])c3cccc1c23` ?
*A* false (0)

*Q* Could you kindly confirm the outcome this assay logged for COc1cc(C2SCC(=O)N2c2ccc(-c3ccc(-n4c(-c5ccccc5)nc5ccccc5c4=O)cc3)cc2)ccc1O (configuration not stated) ?
*A* false (0)

----------
What growth inhibition was measured for each of the following?
Assay: NCI Yeast Anticancer Drug Screen. Data for the rad50EPP+ strain (AID 151);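 note: 0% = growth of vehicle-treated control cultures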
Conditions: S. cerevisiae rad50 mutant strain, at 1.2 µM, hits give high values
Compounds without any hit were thinned out: in the full panel of roughly 79,000, 15% have a hit.
Answers are plain numbers, in %.

Worked cases, answers included:
[[record]]
molecule = "CCCCc1nnc(NS(=O)(=O)c2ccc(C)cc2)s1"
measureunit = "%"
result = -29

[[record]]
molecule = "Cc1cc2c(cc1C)[n+]([O-])c(-c1nc3ccccc3s1)c(N)[n+]2[O-]"
measureunit = "%"
result = 1


Please go through the list and note growth inhibition for each molecule.
1. Brc1ccccc1-c1ncc(-c2ccccc2)o1
2. CC1(C)CC(=O)C(/C=N/c2nc(-c3ccccc3)cs2)=C(O)C1
3. Nc1nc2ccc(NCc3ccc(C(=O)NC(CCC(=O)O)C(=O)O)cc3)cc2c(=O)[nH]1 (stereo unspecified)
4. COc1oc(C(=O)NC2CCCCC2)c(-c2ccc(Cl)cc2)c1S(=O)(=O)c1ccccc1
5. CNC(=O)OCc1c(COC(=O)NC)c2n(c1C)-c1ccc(OC)cc1CCC2
6. Cn1c(-c2ccc(/C=N\N3CCN(/N=C/c4ccc(-c5c[n+]6ccccc6n5C)cc4)CC3)cc2)c[n+]2ccccc12
7. O=C1C(=O)c2ccccc2C(O)=C1C(C1=C(O)c2ccccc2C(=O)C1=O)c1ccc(Cl)cc1
8. CCCC(O)C1CC(C(C)C)CCC1C (stereo unspecified)

*A*
1. -14
2. -1
3. 7
4. -22
5. -6
6. -36
7. 7
8. -3

Parameters: items (list). Returns: growth inhibition for each item.
1. COc1cc2cc3c4cc(OC)c(OC)cc4cc[n+]3c(C)c2cc1OC
2. CC1CC[C@]2(C(=O)O)CCC3(C)C(=CC(=O)C4[C@@]5(C)CCC(=O)C(C)(C)C5CC[C@]43C)[C@@H]2[C@H]1C (stereo partly specified)

*A*
[-18, 9]

Data origin: PubChem BioAssay (NCI)
